Could you please report measured MNEC for the items listed next?
- Test system: Escherichia coli
- METHOD NOTES: Inhibition of Escherichia coli DNA gyrase A2B2 complex after 30 mins by supercoiling assay
Use µg/mL as the unit, but write only the number.

Asked: Any idea what MNEC was measured for COc1cc(O)c2c(c1C)C(=O)OCCCCC(=S)N[C@H](c1nc(C)no1)CSC2 ?
Given back: 0.004

Asked: Any idea what MNEC was measured for COc1cc(O)c2c(c1Br)C(=O)OCCN(C(=O)C(C)(C)C)CC(=O)N[C@H](c1nc(C)no1)CSC2 ?
Given back: 0.05

Asked: Any idea what MNEC was measured for COc1cc(O)c2c(c1C)C(=O)OCC(=S)NCC(=O)N[C@H](c1nc(C)no1)CSC2 ?
Given back: 0.005

Asked: Any idea what MNEC was measured for COc1cc(O)c2c(c1Cl)C(=O)OCCCCC(=O)N[C@H](c1nc(C)no1)CSC2 ?
Given back: 0.005

Asked: Any idea what MNEC was measured for COc1cc(O)c2c(c1Br)C(=O)O[C@H](C)C(=O)NCC(=O)N[C@H](c1nc(C)no1)CSC2 ?
Given back: 0.05

Asked: Any idea what MNEC was measured for COc1cc(O)c2c(c1Br)C(=O)OCCN(C(=O)[C@H](C)N)CC(=O)N[C@H](c1nc(C)no1)CSC2.Cl ?
Given back: 0.1

Asked: Any idea what MNEC was measured for COc1cc(O)c2c(c1Br)C(=O)OCCN(S(C)(=O)=O)CC(=O)N[C@H](c1nc(C)no1)CSC2 ?
Given back: 0.1

Asked: Any idea what MNEC was measured for COc1cc(O)c2c(c1Br)C(=O)OCC(=O)N(C)CC(=O)N[C@H](c1nc(C)no1)CSC2 ?
Given back: 0.05
